Form field: pEC50 (one value per entry).
- system tested: hGLP-1R (Homo sapiens)
- Sequence (P43220 24-463): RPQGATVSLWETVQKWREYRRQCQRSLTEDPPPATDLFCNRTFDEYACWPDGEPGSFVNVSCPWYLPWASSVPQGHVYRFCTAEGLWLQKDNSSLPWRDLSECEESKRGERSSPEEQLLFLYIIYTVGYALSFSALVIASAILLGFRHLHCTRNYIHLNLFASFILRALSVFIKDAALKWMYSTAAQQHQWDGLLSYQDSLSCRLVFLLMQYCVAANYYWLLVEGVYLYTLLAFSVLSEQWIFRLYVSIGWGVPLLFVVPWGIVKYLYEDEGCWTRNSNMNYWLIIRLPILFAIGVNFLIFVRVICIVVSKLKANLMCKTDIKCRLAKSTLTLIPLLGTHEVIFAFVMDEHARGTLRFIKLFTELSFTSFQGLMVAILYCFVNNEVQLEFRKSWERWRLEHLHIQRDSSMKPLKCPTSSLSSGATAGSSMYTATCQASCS
- assay details: Functional cAMP activation in the presence of 0.1% casein (no HSA);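 further: intracellular cAMP rise after 30 min at 37 °C read by HTRF, normalized between buffer only (0%) and maximal control ligand (100%), four-parameter variable-slope fit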
- Assay type: cell-based
- measurement context: in the presence of 0.1% casein (no HSA); geometric mean; read-out: Relative cAMP EC50, hGLP-1R
pEC50: −log10 of the molar value. Starred links: 1 amine or outer side, 2 acyl side, 3 side chain; linkers in the order of their positions; H or OH if unused. Non-standard residues stand in square brackets, D forms with d. Groups on a side chain read outwards from the residue. No end group written: not given here. *: point of attachment. C20 diacid = O=C(O)CCCCCCCCCCCCCCCCCCC(=O)*; C18 diacid = O=C(O)CCCCCCCCCCCCCCCCC(=O)*; αMePhe(2-F) = C[C@](N)(Cc1ccccc1F)C(=O)O; γGlu = O=C(O)[C@H](CCC(=O)[*:2])N[*:1]; αMe4Pal = C[C@](N)(Cc1ccncc1)C(=O)O; αMeY = C[C@](N)(Cc1ccc(O)cc1)C(=O)O; Hyp = O=C(O)[C@@H]1C[C@@H](O)CN1; 4Pal = N[C@@H](Cc1ccncc1)C(=O)O; αMeL = CC(C)C[C@](C)(N)C(=O)O; αMeS = C[C@](N)(CO)C(=O)O; Orn = NCCC[C@H](N)C(=O)O; Dab = NCC[C@H](N)C(=O)O; AEEA = NCCOCCOCC(=O)O; Aib = CC(C)(N)C(=O)O

substance	pEC50
H-Y[Aib]QGTFTSDYSK[αMeL]LDKK([AEEA-γGlu-C20 diacid])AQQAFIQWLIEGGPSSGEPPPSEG-NH2 [Example 314]	9.56
H-Y[Aib]QGTFTSD[4Pal]SQ[αMeL]LDKK([γGlu-γGlu-C18 diacid])AQ[αMe4Pal]AFIEYLIE[Aib]GPSSGAPPPEGE-NH2 [Example 884]	8.38
H-Y[Aib]QGTFTSD[4Pal]S[Orn][αMeL]LD[Orn]K([γGlu-γGlu-C18 diacid])AQ[αMe4Pal][Orn]FIE[αMeY]LIEGGPSSGAPPPSGSEE-NH2 [Example 974]	8.80
H-Y[Aib]QGTFTSDFS[Orn][αMeL]LDKK([AEEA-γGlu-C18 diacid])AQ[Aib]AFIEYLLEGGPSSGAPP[Hyp]GGS-NH2 [Example 237]	8.47
H-Y[Aib]QGT[αMePhe(2-F)]TSD[4Pal][αMeS]I[αMeL]LD[Orn]K([γGlu-γGlu-C18 diacid])AQ[αMe4Pal]EFI[dE][αMeY]LVEGGPSSGAPPPSGE-NH2 [Example 1160]	9.44
Y[Aib]QGTFTSDFS[Orn][αMeL]LDKK([AEEA-γGlu-C18 diacid])AQ[Aib]AFIEYLIE[Aib]GPSSGAPPPSGS-NH2 [Example 796]	9.22
Y[Aib]QGTFTSD[4Pal]SQ[αMeL]LD[Orn]K([dE-γGlu-C18 diacid])AQ[αMe4Pal]AFIEYLIA[Aib]GPSSGEPPPSGSEE-NH2 [Example 1101]	8.76
H-Y[Aib]QGTFTSD[4Pal]SQ[αMeL]LD[Orn]K([AEEA-γGlu-C18 diacid])AQ[Aib]AFIE[αMeY]LLEGGPSSGAPPPSGS-NH2 [Example 911]	8.96
H-Y[Aib]QGTFTSD[4Pal][αMeS]Q[αMeL]LD[Orn]K([dE-γGlu-C18 diacid])AQ[αMe4Pal]QFIQ[αMeY]LIE[Aib]GPSSGEPPPSGGGE-NH2 [Example 1183]	9.11
H-Y[Aib]QGTFTSD[4Pal]SK[αMeL]LDKK([AEEA-γGlu-C18 diacid])AQ[Aib]AFIEYLIE[Aib]GESSGAPPPSGS-NH2 [Example 280]	9.02
H-Y[Aib]QGTFTSDFSK[αMeL]LDKK([AEEA-γGlu-C18 diacid])AQ[Aib]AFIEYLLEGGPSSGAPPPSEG[AEEA]-NH2 [Example 56]	8.39
H-Y[Aib]QGTFTSDFS[Orn][αMeL]LDKK([AEEA-AEEA-γGlu-C18 diacid])AQ[Aib]AFIEYLLE[dA]GPSSGEPPPSGE-NH2 [Example 117]	8.19
H-Y[Aib]QGTFTSD[4Pal]S[Orn][αMeL]LDKK([γGlu-γGlu-C18 diacid])AQ[αMe4Pal]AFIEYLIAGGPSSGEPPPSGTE-NH2 [Example 980]	8.65
H-Y[Aib]QGTFTSD[4Pal]SQ[αMeL]LDKK([AEEA-γGlu-C18 diacid])AQ[αMe4Pal]AFIEYLIE[Aib]GPSSGAPPPSGSGE [Example 889]	8.30
H-Y[Aib]QGTFTSDFS[Orn][αMeL]LDKK([AEEA-γGlu-C18 diacid])AQ[Aib]AFIEWLLEGGPSSGAPPPEGS-NH2 [Example 121]	8.62
Y[Aib]QGTFTSD[4Pal]SQ[αMeL]LDKK([dE-γGlu-C18 diacid])AQ[αMe4Pal]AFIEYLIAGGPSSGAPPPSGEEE-NH2 [Example 1088]	8.52
H-Y[Aib]QGTFTSD[4Pal]SQ[αMeL]LD[Orn]K([γGlu-γGlu-C18 diacid])AQ[Aib]AFIE[αMeY]LLEGGPSSGAPPPSGSEE-NH2 [Example 946]	8.69
H-Y[Aib]QGTFTSDFS[Orn][αMeL]LDKK([AEEA-γGlu-C18 diacid])AQ[Aib]AFIEYLLAGGPSSGEPPPEGS-NH2 [Example 152]	8.39
H-Y[Aib]QGTFTSDFS[Orn][αMeL]LDKK([AEEA-γGlu-C18 diacid])AQ[Aib]AFIEYLLE[Aib]GPSSGAPPPSGT-NH2 [Example 200]	8.50
H-Y[Aib]QGTFTSD[4Pal]S[Dab][αMeL]LDKK([AEEA-γGlu-C18 diacid])AQ[Aib]AFIEYLIE[Aib]GESSGAPPPSGS-NH2 [Example 188]	8.46
H-Y[Aib]QGTFTSD[4Pal]SQ[αMeL]LDKK([γGlu-γGlu-γGlu-C18 diacid])AQ[αMe4Pal]AFIEYLIE[Aib]GPSSGAPPPSGS-NH2 [Example 859]	8.62
H-Y[Aib]QGTFTSD[4Pal]S[Orn][αMeL]LD[Orn]K([Glu-Glu-γGlu-C18 diacid])AQ[Aib]AFIE[αMeY]LLEGGPSSGAPPPSGSEE-NH2 [Example 1067]	7.75
H-Y[Aib]QGTFTSD[4Pal]SQ[αMeL]LD[Orn]K([AEEA-γGlu-C18 diacid])AQ[αMe4Pal]AFIE[αMeY]LIEGGPSSGAPPPSGS-NH2 [Example 849]	9.18
